Reference for the values: paper PMC7753147

Tested on: FL-geph
Assay: µSPOT peptide microarray binding assay with full-length geph
Conditions: µSPOT peptide microarray, GlyRβ full positional scan, intensity normalised to wild-type sequence DLRSNDFSIVGSLPR (=1)
Classification scheme (Fl-geph Binding Intensity [norm.]): c1 = under 0.7 norm., c2 = from 0.7 norm. up to 1 norm., c3 = 1 norm. and over

1) DLDSNDFSIVGSLPR [GlyRβ_Full_Positional_Scan_050]    c3
2) FLRSNDFSIVGSLPR [GlyRβ_Full_Positional_Scan_007]    c3
3) DLRSNDESIVGSLPR [GlyRβ_Full_Positional_Scan_131, GlyR β 414-428 variant F420E]    c1
4) DQRSNDFSIVGSLPR [GlyRβ_Full_Positional_Scan_040]    c2
5) DLRSNDFSIVWSLPR [GlyRβ_Full_Positional_Scan_208, GlyR β 414-428 variant G424W]    c1
6) VLRSNDFSIVGSLPR [GlyRβ_Full_Positional_Scan_006]    c3
7) DLVSNDFSIVGSLPR [GlyRβ_Full_Positional_Scan_046]    c3
8) DLRKNDFSIVGSLPR [GlyRβ_Full_Positional_Scan_074]    c2

Lab log: DLRSNDFSISGSLPR [GlyRβ_Full_Positional_Scan_195, GlyR β 414-428 variant V423S] — assign Fl-geph Binding Intensity [norm.] category
c1

Lab log: DLRSNDFSILGSLPR [GlyRβ_Full_Positional_Scan_184, GlyR β 414-428 variant V423L] — assign Fl-geph Binding Intensity [norm.] category
c1

Lab log: DLRSNVFSIVGSLPR [GlyRβ_Full_Positional_Scan_106] — assign Fl-geph Binding Intensity [norm.] category
c2
